Catalogue of pest or weed control at 70 g/ha readings, one per entry.
# System: Key Broadleaf Weed and Crop Species
# measurementDescription: Post-emergent Test II herbicidal activity (Table 15)
# Format: in vivo
# conditionDescription: Brassica napus, post-emergence, 336 h, oilseed rape, canola (Brassica napus), 70 g ai/ha, 14 d, read-out: Visual Growth Reduction (%) 14 Days After Application, BRSNN

Please review the entries below; each comes with its answer.
1. COC(=O)c1nc(-c2cccc3[nH]ccc23)c(F)c(N)c1Cl: 0 to 29%
2. COC(=O)c1nc(-c2ccc3ccsc3c2)nc(N)c1OC: 60 to 74%
3. COC(=O)c1nc(-c2ccc3cc[nH]c3c2)nc(N)c1OC: 45 to 59%
4. COC(=O)c1nc(-c2cc3[nH]ccc3cc2F)c(F)c(N)c1Cl: 0 to 29%
5. Nc1c(F)c(-c2cc3[nH]ccc3cc2F)nc(C(=O)O)c1Cl: 60 to 74%

Recorded result, COC(=O)c1nc(-c2ccc(Cl)c3cc[nH]c23)c(F)c(N)c1Cl , pest or weed control at 70 g/ha: 0 to 29%

Recorded result, Nc1cc(-c2ccc3ccsc3c2)nc(C(=O)O)c1Cl , pest or weed control at 70 g/ha: 0 to 29%

----------
# System: Key Broadleaf Weed and Crop Species
# measurementDescription: Post-emergent Test II herbicidal activity (Table 15)
# Assay type: in vivo
# conditionDescription: Chenopodium album, post-emergence, 336 h, lambsquarters (Chenopodium album), 140 g ai/ha, 14 d, read-out: Visual Growth Reduction (%) 14 Days After Application, CHEAL
measuredAttribute: pest or weed control at 140 g/ha

Please review the entries below; each comes with its answer.
1. COC(=O)c1nc(-c2ccc3ccsc3c2)cc(N)c1Cl: 95 to 100%
2. COC(=O)c1nc(-c2cccc3ccsc23)cc(N)c1Cl: 95 to 100%
3. COC(=O)c1nc(-c2ccc3ccoc3c2F)cc(N)c1Cl: 95 to 100%
4. COC(=O)c1nc(-c2ccc3occc3c2)nc(N)c1OC: 85 to 94%
5. COC(=O)c1nc(-c2cc3sccc3cc2F)c(F)c(N)c1Cl: 95 to 100%
6. Nc1c(F)c(-c2ccc3cc[nH]c3c2)nc(C(=O)O)c1Cl: 95 to 100%

pest or weed control at 140 g/ha of COC(=O)c1nc(-c2ccc3cn[nH]c3c2)c(F)c(N)c1Cl , assay on Key Broadleaf Weed and Crop Species, is 95 to 100%

pest or weed control at 140 g/ha of Cc1c(-c2ccc3sccc3c2)nc(C(=O)O)c(Cl)c1N , assay on Key Broadleaf Weed and Crop Species, is 75 to 84%

pest or weed control at 140 g/ha of COC(=O)c1nc(-c2ccc(Cl)c3ccoc23)c(F)c(N)c1Cl , assay on Key Broadleaf Weed and Crop Species, is 95 to 100%

----------
Catalogue of pest or weed control at 140 g/ha readings, one per entry.
# Test system: Key Grass and Sedge Weeds as well as Grass Crops
# measurementDescription: Post-emergent Test II herbicidal activity (Table 16)
# Format: in vivo
# conditionDescription: Echinochloa crus-galli, post-emergence, 336 h, barnyardgrass (Echinochloa crus-galli), 140 g ai/ha, 14 d, read-out: Visual Growth Reduction (%) 14 Days After Application, ECHCG

1. COC(=O)c1nc(-c2ccc(Cl)c3cc[nH]c23)c(F)c(N)c1Cl: 0 to 29%
2. COc1c(C(=O)O)nc(-c2ccc3cc[nH]c3c2F)c(F)c1N: 85 to 94%
3. COC(=O)c1nc(-c2ccc3cc[nH]c3c2F)c(F)c(N)c1OC: 75 to 84%
4. COC(=O)c1nc(-c2cc3occc3cc2F)cc(N)c1Cl: 95 to 100%

// next entry
pest or weed control at 140 g/ha of COC(=O)c1nc(-c2cc3[nH]ccc3cc2F)c(F)c(N)c1Cl , assay on Key Grass and Sedge Weeds as well as Grass Crops, is 0 to 29%

Data credit: patent US20170050957A1
